# measured.on: T1, L1-CR1 (Her054P)
# T1 construct: also called 1.0
# T1 chain: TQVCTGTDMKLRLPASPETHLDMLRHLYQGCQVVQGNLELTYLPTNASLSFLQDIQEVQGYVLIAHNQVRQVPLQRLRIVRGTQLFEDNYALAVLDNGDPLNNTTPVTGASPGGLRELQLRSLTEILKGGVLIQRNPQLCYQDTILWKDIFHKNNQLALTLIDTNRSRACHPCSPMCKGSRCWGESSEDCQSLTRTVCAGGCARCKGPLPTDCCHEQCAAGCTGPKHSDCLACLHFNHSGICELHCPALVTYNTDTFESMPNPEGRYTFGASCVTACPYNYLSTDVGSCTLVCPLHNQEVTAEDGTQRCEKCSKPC
# assay.protocol: ELISA, soluble scFv on L1-CR1

binder	binding result
S1R3C1_BMV_1H11 (scFv, V domains shown, scFv, soluble from bacterial periplasm in the screen; also called Her2_S1R3C1_BMV_1H11) VH: GVQLVESGGGLVKPGGSLRLSCAASGFTFSSYNMNWVRQAPGKGLEWVSAISGSGGSTYYADSVTGRFTISRDNSKNTLYLQMNSLRAEDTAVYYCAKDTSGWYGDGMDVWGRGTLVTVSS VL: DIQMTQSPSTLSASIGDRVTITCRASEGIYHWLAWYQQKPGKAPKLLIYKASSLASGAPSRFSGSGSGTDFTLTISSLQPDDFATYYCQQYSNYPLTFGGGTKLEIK	no binding
S1R3B2_BMV_1H5 (scFv, V domains shown, scFv, on phage in the screen; also called Her2_S1R3B2_BMV_1H5) VH: EVQLVQSGGGLVRPGGSLRLSCAASGFSFSDYYMTWIRQIPGKGLEWVAVIWNDGSDRYYADSVKGRFTISRDNSKNTLFLQMSSLRDEDTALYYCVRGGPTASSGFDYWGRGTLVTVSS VL: SSELTQPASVSGSPGQSITISCTGTSSDVGGYNYVSWYLQHPGKAPKLMIYEGSKRPSGVSNRFSGSKSGNTASLTISGLQAEDEADYYCSSYTTRSTRVFGGGTKLTVL	no binding
